Values from patent US9980943B2

# Test system: β-galactosidase in CMV-LacZ C2C12 myoblasts
# RUN DESCRIPTION: CMV-LacZ secondary screen in C2C12 myoblasts (β-Gal stabilizing assay)
# Format: cell-based, mouse
# RUN CONDITIONS: 0.5 uM; CMV-LacZ C2C12 myoblasts
In this section we review reported CMV-LACZ in Myoblasts (β-galactosidase activity relative to DMSO) values for a set of compounds.

Return value of CMV-LACZ in Myoblasts (β-galactosidase activity relative to DMSO) for input CC(O)CNc1nc2c(c(=O)n(Cc3ccc(Br)cc3)c(=O)n2C)n1C (centres unmarked) [MLS001212319-01] , no commentary. 0.9129

Return value of CMV-LACZ in Myoblasts (β-galactosidase activity relative to DMSO) for input O=C(O)CC1(c2ccccc2)C(=O)c2ccccc2C1=O [MLS000052969-01] , no commentary. 0.8950

Return value of CMV-LACZ in Myoblasts (β-galactosidase activity relative to DMSO) for input CCOc1cc(C)c(S(=O)(=O)N2CCCCC2)cc1C [MLS000693795-01] , no commentary. 0.9100

Return value of CMV-LACZ in Myoblasts (β-galactosidase activity relative to DMSO) for input CC(=O)C1=C(C)Nc2ncnn2C1c1ccc(C)cc1 (centres unmarked) [MLS001197779-01] , no commentary. 0.8987

Return value of CMV-LACZ in Myoblasts (β-galactosidase activity relative to DMSO) for input CCOc1ccc(Br)cc1S(=O)(=O)Nc1ccc(C(=O)Nc2ccccc2OC)cc1 [MLS000418650-01] , no commentary. 0.9237

###

# Test system: β-galactosidase in CMV-LacZ C2C12 myoblasts
# RUN DESCRIPTION: CMV-LacZ secondary screen in C2C12 myoblasts (β-Gal stabilizing assay)
# Assay type: cell-based, mouse
# RUN CONDITIONS: 20 uM; CMV-LacZ C2C12 myoblasts
In this section we review reported CMV-LACZ in Myoblasts (β-galactosidase activity relative to DMSO) values for a set of compounds.
Form rule: numeric answer, no unit written next to it.

Below are worked cases with known answers.
O=c1[nH]c2ccccc2nc1-c1c[nH]c2ccccc12 [MLS001181936-01]
0.7863
COC(=O)c1ccccc1NC(=O)CSc1nc(O)c(-c2ccccc2)c(=O)[nH]1 [MLS000621451-01]
1.2493
O=C(Nc1ccccc1OC(=O)c1ccc(Cl)cc1)c1ccc(Cl)cc1 [MLS000573208-01]
0.6626
O=C(NCCc1ccc(Cl)cc1)C1CCCO1 (stereo not drawn) [MLS001198271-01]
0.9944
O=c1[nH]c(CN2CCCCC2)nc2c1C1(CCCCC1)Cc1ccccc1-2 [MLS000028160-01]
0.8967

Return value of CMV-LACZ in Myoblasts (β-galactosidase activity relative to DMSO) for input COc1cc(C=O)ccc1OCC(=O)Nc1ccc2c(c1)OCO2 [MLS001123876-01] , no commentary. 0.9618

Return value of CMV-LACZ in Myoblasts (β-galactosidase activity relative to DMSO) for input CCOC(=O)c1cc(-c2cccs2)nc2c1c(C)nn2-c1ccccn1 [MLS001006516-01] , no commentary. 0.4956

Return value of CMV-LACZ in Myoblasts (β-galactosidase activity relative to DMSO) for input COc1cccc(CN2CCN(Cc3ccco3)CC2)c1.O=C(O)C(=O)O [MLS001211139-01] , no commentary. 1.0659

Return value of CMV-LACZ in Myoblasts (β-galactosidase activity relative to DMSO) for input CC1CCCCC1NC(=O)CSc1nnc(COc2ccc(Cl)cc2)o1 (stereo not drawn) [MLS000948055-01] , no commentary. 0.5407

Return value of CMV-LACZ in Myoblasts (β-galactosidase activity relative to DMSO) for input CC(C)CN(C(=O)c1cccc(Cl)c1)c1c(N)n(Cc2ccccc2)c(=O)[nH]c1=O [MLS002163670-01] , no commentary. 0.8611

Return value of CMV-LACZ in Myoblasts (β-galactosidase activity relative to DMSO) for input CC(NC(=O)c1ccc(C(C)(C)C)cc1)C(c1cccs1)N1CCOCC1 (stereo not drawn) [MLS001167281-01] , no commentary. 0.9256

###

# Test system: β-galactosidase in CMV-LacZ C2C12 myotubes
# RUN DESCRIPTION: CMV-LacZ secondary screen in C2C12 myotubes (β-Gal stabilizing assay)
# Type: cell-based, mouse
# RUN CONDITIONS: 0.5 uM; C2C12 CMV-LacZ myotubes; fold relative to DMSO
In this section we review reported CMV-LACZ in Myotubes, signal relative to DMSO values for a set of compounds.
Form rule: numeric answer, no unit written next to it.

CCCCN1CC(=O)N2Cc3[nH]c4ccccc4c3C[C@H]2C1=O
0.9152
CN(CCC1CCCCO1)C(=O)CCc1nnc(CCCCc2ccccc2)o1 (stereo not drawn)
1.0105

Now for another entry.
Fill in: CMV-LACZ in Myotubes, signal relative to DMSO on β-galactosidase in CMV-LacZ C2C12 myotubes, entry CC(C)CN(C(=O)c1cccc(Cl)c1)c1c(N)n(Cc2ccccc2)c(=O)[nH]c1=O 0.9237

###

In this section we review reported Burkin Assay in Myoblasts, signal relative to DMSO values for a set of molecules.
# System: α7 integrin (LacZ reporter in α7βgal+/− myoblasts)
# RUN DESCRIPTION: Myoblast α7+/LacZ integrin FDG assay (Burkin assay in myoblasts, 96-well)
# Type: cell-based, mouse
# RUN CONDITIONS: 20 uM; α7+/LacZ myoblasts, 96-well
Form rule: numeric answer, no unit written next to it.

COc1ccc(S(=O)(=O)N2CCCCCC2)cc1C(=O)N1CCN(c2ccccc2O)CC1 [MLS001150751-01]
1.079
CC1(C)CC(=O)C=C(Nc2ccc(C(=O)O)c(O)c2)C1 [MLS001198693-01]
0.9351
COc1cc(C=O)ccc1OCC(=O)Nc1ccc2c(c1)OCO2 [MLS001123876-01]
0.9339

Return value of Burkin Assay in Myoblasts, signal relative to DMSO for input Cc1ccccc1NC(=O)c1ccc2c(O)c(S(=O)(=O)c3ccccc3)c(=O)[nH]c2c1 [MLS001122698-01] , no commentary. 0.9061

Return value of Burkin Assay in Myoblasts, signal relative to DMSO for input N#Cc1nc(COc2ccccc2)oc1N1CCCC1 [MLS000036988-01] , no commentary. 0.9023

###

# Test system: β-galactosidase in CMV-LacZ C2C12 myotubes
# RUN DESCRIPTION: CMV-LacZ secondary screen in C2C12 myotubes (β-Gal stabilizing assay)
# Format: cell-based, mouse
# RUN CONDITIONS: 10 uM; SU9516 analogs, C2C12 CMV-LacZ, N=2
Decision: CMV-LACZ in Myotubes, value relative to DMSO compared against 1; not below it gives t, below it gives f.

Consider the worked cases shown below.
Cc1cc(C)c(/C=C2\C(=O)Nc3ccccc32)[nH]1 [NCGC00094381-04]
t
O=C1Nc2ccccc2/C1=C/c1cccnc1 [MLS000682748-01]
f

Note: attention shifts to another entry.
Reported CMV-LACZ in Myotubes, value relative to DMSO at or above 1? COc1ccc(C(=O)/C=C2/C(=O)Nc3ccccc32)cc1 [MLS001163848-01] t

###

In this section we review reported Burkin Assay in Myotubes, α7 integrin LacZ reporter signal relative to DMSO values for a set of molecules.
# Tested on: α7 integrin (LacZ reporter in α7+/LacZ myotubes)
# RUN DESCRIPTION: Myotube α7 integrin FDG assay (Burkin assay in myotubes, 96-well)
# Format: cell-based, mouse
# RUN CONDITIONS: myotubes, 10 uM
Form rule: numeric answer, no unit written next to it.

COc1cc(/C=C/CN2CCN(Cc3ccc(C)o3)C(CCO)C2)ccc1O (stereo not drawn) [MLS000693704-01]
0.923

Fill in: Burkin Assay in Myotubes, α7 integrin LacZ reporter signal relative to DMSO on α7 integrin (LacZ reporter in α7+/LacZ myotubes), entry Nc1ncnc(NCc2ccccc2)c1[N+](=O)[O-] [MLS000698826-01] 0.9001

Fill in: Burkin Assay in Myotubes, α7 integrin LacZ reporter signal relative to DMSO on α7 integrin (LacZ reporter in α7+/LacZ myotubes), entry CCOC(=O)C1(Cc2cccc(Cl)c2)CCCN(C(=O)CCSC)C1 (stereo not drawn) [MLS001000299-01] 0.9163

###

# Tested on: α7 integrin (LacZ reporter in α7+/LacZ myotubes)
# RUN DESCRIPTION: Myotube α7 integrin FDG assay (Burkin assay in myotubes, 96-well)
# Assay type: cell-based, mouse
# RUN CONDITIONS: myotubes, 5 uM
Decision: Burkin Assay in Myotubes, α7 integrin LacZ reporter signal relative to DMSO compared against 1; not below it gives t, below it gives f.

Consider the worked cases shown below.
O=C(COc1ccc(Cl)cc1)N1CCN(C2CCCC2)CC1.O=C(O)C(=O)O [MLS001221318-01]
f
Cc1[nH]c(=O)[nH]c(=O)c1S(=O)(=O)Nc1ccc(F)cc1Cl [MLS001200149-01]
t
O=c1[nH]c(SCc2ccc(Cl)cc2)nc2ccsc12 [MLS000755214-01]
f
Cc1cccc(NC(=O)c2cc3ccccc3oc2=O)c1 [MLS001209245-01]
f
Cc1nnc(-c2ccc(N3CCOCC3)c([N+](=O)[O-])c2)o1 [MLS001359861-01]
f
O=C1CCC(C(=O)N2CCSCC2)CN1Cc1ccc(Cl)cc1 (centres unmarked) [MLS001090787-01]
t
Fc1ccc(-c2ccnc3nc(N4CCN(c5ccccc5)CC4)nn23)cc1 [MLS000546316-01]
t
CCOn1c(=O)c(-c2ccccc2)[n+]([O-])c2ccccc21 [MLS001197220-01]
t

Reported Burkin Assay in Myotubes, α7 integrin LacZ reporter signal relative to DMSO at or above 1? Cc1nc2c(cnn2-c2ccccc2)c(=O)n1/N=C/c1ccccc1 [MLS000860538-01] t
